system: endogenous TFE3; test: TFE3 nuclear translocation, immunocytochemistry high-content imaging; type: cell-based; conditions: PKIS2 primary screening
Please use the following TFE3 % ranges when assigning a class: low end: < 10%; middle: ≥ 10% and < 20%; high end: ≥ 20%

>  <compound>
COC(=O)Nc1nc2ccc(Oc3ccc(NC(=O)Nc4cc(F)ccc4F)cc3)cc2[nH]1 [GW701424]

>  <category>
high end

$$$$
>  <compound>
O=c1cc(N2CCOCC2)nc2n(Cc3cccc(F)c3)ccn12 [UNC10225332A]

>  <category>
middle

$$$$
>  <compound>
Cl.Cl.Cl.Fc1ccc(-c2ncn(C3CCNCC3)c2-c2ccnc(Nc3ccccc3)n2)cc1 [UNC10225420A]

>  <category>
middle

$$$$
>  <compound>
Cc1cc(-c2c(-c3ccc(F)cc3)ncn2CCCN2CCOCC2)nc(N)n1 [UNC10225357A]

>  <category>
middle

$$$$
>  <compound>
COc1cc2nccc(Nc3ccc(OCc4ccc(NC(C)=O)cc4)cc3)c2cc1OC.Cl [UNC10225233A]

>  <category>
middle

$$$$
>  <compound>
N#Cc1cnc2cc(-c3cnc(CNCCN4CCOCC4)s3)ccc2c1Nc1ccc(Oc2ccccc2)cc1 [UNC10225079A]

>  <category>
low end

$$$$
>  <compound>
O=C(Nc1n[nH]c2cc(-c3ccco3)ccc12)C1CC1 [SB-737447]

>  <category>
low end

$$$$
>  <compound>
N#Cc1ccc(-c2cc(-c3c[nH]nc3-c3ccccn3)ccn2)cc1 [UNC10225072A]

>  <category>
middle

$$$$
>  <compound>
Cc1cccc(Nc2nc(N[C@H]3CCCC[C@H]3N)ncc2C(N)=O)c1.Cl [UNC10225280A]

>  <category>
high end

$$$$
>  <compound>
NC(=O)c1cc(-c2ccccc2)cc2c(C3CCNCC3)c[nH]c12 [UNC10225015A]

>  <category>
middle

$$$$
>  <compound>
c1ccc(-c2cnc3nccnn23)cc1 [UNC10225020A]

>  <category>
middle

$$$$
>  <compound>
Nc1ncc(-c2cn[nH]c2)c2scc(-c3ccc4c(c3)CCN4C(=O)Cc3ccccc3)c12 [UNC10225500A]

>  <category>
middle

$$$$
>  <compound>
CN(C)CCOc1ccc(-c2cc(-c3ccc(Cl)c(O)c3)c(-c3ccncc3)[nH]2)cc1.Cl.Cl [UNC10225395A]

>  <category>
high end

$$$$
>  <compound>
Nc1nc(-c2ccc3c(N)n[nH]c3c2)cc(N2CCCCC2)n1 [GSK2228768]

>  <category>
middle

$$$$
>  <compound>
Cn1cc(-c2ccc3c(c2)CCN3C(=O)Cc2cc(F)cc(C(F)(F)F)c2)c2c(N)ncnc21 [UNC10225478A]

>  <category>
middle

$$$$
>  <compound>
COc1ccc(-c2oc3ncnc(N)c3c2-c2ccc(OC)cc2)cc1 [UNC10225431A]

>  <category>
low end

$$$$
>  <compound>
COc1ccc(CNC(=O)NC2CCN(c3ccnc(Nc4ccc(OC)cc4)n3)C2)cc1 (stereo not drawn) [GSK1379727]

>  <category>
middle

$$$$
